Provenance of the data: patent US5486516A

- System: Puccinia recondita tritici (leaf rust)
- TEST DETAILS: Plant pathology screen (Test 1), leaf rust on wheat
- CONDITION SUMMARY: in Triticum aestivum, foliar, read-out: LEAF RUST control rating
pest or weed control at 400 µg/mL by entry:

Past entries and their recorded results:
CHEMICAL SMILES: COc1ccc(CCNc2ncnc3oc(C)c(C)c23)cc1
METRIC: pest or weed control at 400 µg/mL
REPORTED MEASUREMENT: 20 to 89%
--
CHEMICAL SMILES: Cc1oc2ncnc(OCCc3ccc4c(c3)OCCO4)c2c1C
METRIC: pest or weed control at 400 µg/mL
REPORTED MEASUREMENT: 0 to 19%

Q. Given the molecule "Cc1oc2ncnc(Oc3ccccc3F)c2c1C" , what is its reported pest or weed control at 400 µg/mL?
A. 20 to 89%

Q. // query: "CCCCOc1ccc(CCOc2ncnc3oc(C)cc23)cc1"
A. 90 to 100%

Q. Field entry: "COc1ccc(CCNc2ncnc3oc4c(c23)CCCC4)cc1"
A. 20 to 89%

====

Measured pest or weed control at 400 µg/mL by item
- Tested on: Puccinia recondita tritici (leaf rust)
- TEST DETAILS: Plant pathology screen (Test 1), leaf rust on wheat
- CONDITION SUMMARY: in Triticum aestivum, foliar, read-out: LEAF RUST control rating

COMPOUND: Cc1oc2ncnc(NCCc3ccc(OCC(F)(F)F)cc3)c2c1C
pest or weed control at 400 µg/mL: 20 to 89%
--
COMPOUND: Cc1oc2ncnc(OCCc3ccc4ccccc4c3)c2c1C
pest or weed control at 400 µg/mL: 20 to 89%
--
COMPOUND: Cc1oc2ncnc(NCCc3ccc(Cl)cc3)c2c1C
pest or weed control at 400 µg/mL: 20 to 89%
--
COMPOUND: Cc1oc2ncnc(OCCc3cccs3)c2c1C
pest or weed control at 400 µg/mL: 20 to 89%

Q. Find the recorded pest or weed control at 400 µg/mL belonging to "Cc1ccc(Oc2ncnc3oc(C)c(C)c23)cc1" and report it.
A. 0 to 19%

Q. Proceed to "Cc1oc2ncnc(OCCN3C[C@@H](C)O[C@@H](C)C3)c2c1C"
A. 0 to 19%

Q. And then Cc1oc2ncnc(OCCN3C[C@@H](C)O[C@H](C)C3)c2c1C (relative stereo) , what is it?
A. 20 to 89%

Q. And then "Cc1oc2ncnc(OCCc3ccc4c(c3)OC(F)(F)O4)c2c1C" , what is it?
A. 0 to 19%

Q. Consider next the compound "Cc1oc2ncnc(NCCc3ccc4ccccc4c3)c2c1C" in the same way.
A. 0 to 19%

====

Measured pest or weed control at 400 µg/mL, listed per entry for reference.
- Test system: Puccinia recondita tritici (leaf rust)
- TEST DETAILS: Plant pathology screen (Test 1), leaf rust on wheat
- CONDITION SUMMARY: in Triticum aestivum, foliar, read-out: LEAF RUST control rating

Sample records with pest or weed control at 400 µg/mL:
CHEMICAL SMILES: Cc1cc2c(NCCc3cccc(C(F)(F)F)c3)ncnc2o1
SUBJECT OF TEST: Puccinia recondita tritici (leaf rust)
pest or weed control at 400 µg/mL: 90 to 100%
--
CHEMICAL SMILES: Cc1oc2ncnc(NCCc3cccc(C(F)(F)F)c3)c2c1C
SUBJECT OF TEST: Puccinia recondita tritici (leaf rust)
pest or weed control at 400 µg/mL: 20 to 89%
--
CHEMICAL SMILES: Cc1oc2ncnc(Oc3ccc(F)cc3Cl)c2c1C
SUBJECT OF TEST: Puccinia recondita tritici (leaf rust)
pest or weed control at 400 µg/mL: 20 to 89%
--
CHEMICAL SMILES: COc1ccc(CCNc2ncnc3occc23)cc1
SUBJECT OF TEST: Puccinia recondita tritici (leaf rust)
pest or weed control at 400 µg/mL: 90 to 100%
--
CHEMICAL SMILES: Cc1cc2c(OCCc3ccc(C(F)(F)F)cc3)ncnc2o1
SUBJECT OF TEST: Puccinia recondita tritici (leaf rust)
pest or weed control at 400 µg/mL: 90 to 100%
--
CHEMICAL SMILES: Cc1oc2ncnc(OCCc3ccc(Cl)cc3)c2c1C
SUBJECT OF TEST: Puccinia recondita tritici (leaf rust)
pest or weed control at 400 µg/mL: 90 to 100%
--
CHEMICAL SMILES: Cc1cc2c(OCCC34CC5CC(CC(C5)C3)C4)ncnc2o1
SUBJECT OF TEST: Puccinia recondita tritici (leaf rust)
pest or weed control at 400 µg/mL: 0 to 19%
--
CHEMICAL SMILES: CCCCOc1ccc(CCOc2ncnc3oc(C)c(C)c23)cc1
SUBJECT OF TEST: Puccinia recondita tritici (leaf rust)
pest or weed control at 400 µg/mL: 90 to 100%
--
CHEMICAL SMILES: Cc1oc2ncnc(Oc3cccc(C(F)(F)F)c3)c2c1C
SUBJECT OF TEST: Puccinia recondita tritici (leaf rust)
pest or weed control at 400 µg/mL: 0 to 19%
--
CHEMICAL SMILES: COc1cccc(CCNc2ncnc3occ(C)c23)c1
SUBJECT OF TEST: Puccinia recondita tritici (leaf rust)
pest or weed control at 400 µg/mL: 90 to 100%

# evaluate next
Q. Quick one: pest or weed control at 400 µg/mL of "Cc1oc2ncnc(NCCc3ccc(C(C)(C)C)cc3)c2c1C" ?
A. 90 to 100%
